system: NCI-H322M; assay: Antiproliferative activity against human NCI-H322M cells assessed as cell viability at 10^-5 M incubated for 48 hrs by sulforhodamine B assay relative to control; format: functional; details: read-out: Activity
// values below are reported viability at 10 µM
Reply with the number, then its unit.

For orientation, consider the following solved cases.
* CCOc1cc2c(c(OCC)c1OCC)C(=O)NC1C2CC(O)C(O)C1O (racemic) | 97.8%
* CCOc1cc2c(c(O)c1OCC)C(=O)NC1C2CC(O)C(O)C1O (racemic) | 97.6%
* O=C1NC2C(CC(O)C(O)C2O)c2cc3c(c(O)c21)OCCO3 (racemic) | -24.3%
* COc1cc2c(c(OC)c1OC)C(=O)NC1C2CC(O)C(O)C1O (racemic) | 104%

Please examine the following record next.
# viability at 10 µM measured on NCI-H322M for item CCOc1cc2c(c(OC)c1OCC)C(=O)NC1C2CC(O)C(O)C1O (racemic) = 106%

----------
system: UACC-62; test: Antiproliferative activity against human UACC62 cells assessed as cell viability at 10^-5 M incubated for 48 hrs by sulforhodamine B assay relative to control; type: functional; conditions: UACC-62, 48 h, read-out: Activity
quantity.kind: viability at 10 µM (%)
Quick reminder: number only, in %, skip the unit.

For orientation, consider the following solved cases.
• COc1cc2c(c(OC)c1OC)C(=O)NC1C2CC(O)C(O)C1O (racemic) = 94.1
• COc1cc2c(c3c1OCCO3)C(=O)NC1C2CC(O)C(O)C1O (racemic) = 99.3
• O=C1NC2C(CC(O)C(O)C2O)c2cc3c(c(O)c21)OCCO3 (racemic) = -13.3

Recorded viability at 10 µM (compound O=C1NC2C(CC(O)C(O)C2O)c2cc3c(c(O)c21)OCO3 (racemic) ): -48.4

Recorded viability at 10 µM (compound CCOc1cc2c(c(OC)c1OCC)C(=O)NC1C2CC(O)C(O)C1O (racemic) ): 97.3

Recorded viability at 10 µM (compound CCCOc1cc2c(cc1OCC)C1CC(O)C(O)C(O)C1NC2=O (racemic) ): 117

Recorded viability at 10 µM (compound COc1c2c(cc3c1C(=O)NC1C3CC(O)C(O)C1O)OCCO2 (racemic) ): 96.7

Recorded viability at 10 µM (compound CCOc1c(OC)cc2c(c1O)C(=O)NC1C2CC(O)C(O)C1O (racemic) ): 93.1

Recorded viability at 10 µM (compound O=C1NC2C(CC(O)C(O)C2O)c2cc3c(cc21)OCCO3 (racemic) ): 103

Recorded viability at 10 µM (compound CCOc1c(OC)cc2c(c1OCC)C(=O)NC1C2CC(O)C(O)C1O (racemic) ): 95.7

----------
tested on: EKVX; experiment: Antiproliferative activity against human EKVX cells assessed as cell viability at 10^-5 M incubated for 48 hrs by sulforhodamine B assay relative to control; type: functional; settings: read-out: Activity
quantity.kind: viability at 10 µM (%)
Quick reminder: number only, in %, skip the unit.

- COc1c2c(cc3c1C(=O)NC1C3CC(O)C(O)C1O)OCCO2 (racemic): 98.2
- COc1cc2c(c(OC)c1OC)C(=O)NC1C2CC(O)C(O)C1O (racemic): 103

Please examine the following record next.
Recorded viability at 10 µM (compound CCOc1cc2c(c(OCC)c1OCC)C(=O)NC1C2CC(O)C(O)C1O (racemic) ): 97.3

----------
tested on: NCI-H460; test: Antiproliferative activity against human NCI-H460 cells assessed as cell viability at 10^-5 M incubated for 48 hrs by sulforhodamine B assay relative to control; format: functional; settings: NCI-H460, 48 h, read-out: Activity
quantity.kind: viability at 10 µM
Reply with the number, then its unit.

For orientation, consider the following solved cases.
* CCOc1c(OC)cc2c(c1O)C(=O)NC1C2CC(O)C(O)C1O (racemic) | 112%
* CCOc1cc2c(c(O)c1OCC)C(=O)NC1C2CC(O)C(O)C1O (racemic) | 113%

Please examine the following record next.
# viability at 10 µM measured on NCI-H460 for item O=C1NC2C(CC(O)C(O)C2O)c2cc3c(cc21)OCCO3 (racemic) = 107%

----------
system: MCF7; assay: Antiproliferative activity against human MCF7 cells assessed as cell viability at 10^-5 M incubated for 48 hrs by sulforhodamine B assay relative to control; assay type: functional; conditions: MCF7, 48 h, read-out: Activity
quantity.kind: viability at 10 µM (%)
Quick reminder: number only, in %, skip the unit.

For orientation, consider the following solved cases.
• CCCOc1cc2c(cc1OCC)C1CC(O)C(O)C(O)C1NC2=O (racemic) = 99
• CCOc1c(OC)cc2c(c1O)C(=O)NC1C2CC(O)C(O)C1O (racemic) = 92.1
• CCOc1cc2c(cc1OCC)C1CC(O)C(O)C(O)C1NC2=O (racemic) = 94.4

# viability at 10 µM measured on MCF7 for item CCOc1cc2c(c(O)c1OCC)C(=O)NC1C2CC(O)C(O)C1O (racemic) = 90.9

# viability at 10 µM measured on MCF7 for item O=C1NC2C(CC(O)C(O)C2O)c2cc3c(cc21)OCCO3 (racemic) = 98.6

# viability at 10 µM measured on MCF7 for item CCOc1cc2c(c(OC)c1OCC)C(=O)NC1C2CC(O)C(O)C1O (racemic) = 97.6

# viability at 10 µM measured on MCF7 for item COc1cc2c(c(OC)c1OC)C(=O)NC1C2CC(O)C(O)C1O (racemic) = 96.1

----------
tested on: HCT-116; test: Antiproliferative activity against human HCT116 cells assessed as cell viability at 10^-5 M incubated for 48 hrs by sulforhodamine B assay relative to control; type: functional; conditions: HCT-116, 48 h, read-out: Activity
// values below are reported viability at 10 µM
Quick reminder: number only, in %, skip the unit.

• O=C1NC2C(CC(O)C(O)C2O)c2cc3c(c(O)c21)OCO3 (racemic) = -1.49

Recorded viability at 10 µM (molecule CCCOc1cc2c(cc1OCC)C1CC(O)C(O)C(O)C1NC2=O (racemic) ): 101

Recorded viability at 10 µM (molecule CCOc1c(OC)cc2c(c1OCC)C(=O)NC1C2CC(O)C(O)C1O (racemic) ): 100

Recorded viability at 10 µM (molecule COc1cc2c(c3c1OCCO3)C(=O)NC1C2CC(O)C(O)C1O (racemic) ): 99.6

Recorded viability at 10 µM (molecule CCOc1cc2c(c(OC)c1OCC)C(=O)NC1C2CC(O)C(O)C1O (racemic) ): 95.6

----------
system: OVCAR-5; test: Antiproliferative activity against human OVCAR5 cells assessed as cell viability at 10^-5 M incubated for 48 hrs by sulforhodamine B assay relative to control; assay type: functional; conditions: OVCAR-5, 48 h, read-out: Activity
quantity.kind: viability at 10 µM (%)
Quick reminder: number only, in %, skip the unit.

For orientation, consider the following solved cases.
* CCOc1cc2c(cc1OCC)C1CC(O)C(O)C(O)C1NC2=O (racemic) | 101
* CCCOc1cc2c(cc1OCC)C1CC(O)C(O)C(O)C1NC2=O (racemic) | 105

Please examine the following record next.
Recorded viability at 10 µM (compound CCOc1c(OC)cc2c(c1OCC)C(=O)NC1C2CC(O)C(O)C1O (racemic) ): 108

----------
// values below are reported viability at 10 µM
system: HCT-116; experiment: Antiproliferative activity against human HCT116 cells assessed as cell viability at 10^-5 M incubated for 48 hrs by sulforhodamine B assay relative to control; format: functional; conditions: HCT-116, 48 h, read-out: Activity
Quick reminder: number only, in %, skip the unit.

For orientation, consider the following solved cases.
- CCOc1cc2c(c(O)c1OCC)C(=O)NC1C2CC(O)C(O)C1O (racemic): 104
- O=C1NC2C(CC(O)C(O)C2O)c2cc3c(c(O)c21)OCCO3 (racemic): -3.3
- O=C1NC2C(CC(O)C(O)C2O)c2cc3c(cc21)OCCO3 (racemic): 95.5
- CCOc1cc2c(cc1OCC)C1CC(O)C(O)C(O)C1NC2=O (racemic): 96.3
- CCOc1c(OC)cc2c(c1O)C(=O)NC1C2CC(O)C(O)C1O (racemic): 104

Recorded viability at 10 µM (compound CCOc1cc2c(c(OCC)c1OCC)C(=O)NC1C2CC(O)C(O)C1O (racemic) ): 101

Recorded viability at 10 µM (compound COc1cc2c(c(OC)c1OC)C(=O)NC1C2CC(O)C(O)C1O (racemic) ): 98.9

Recorded viability at 10 µM (compound COc1c2c(cc3c1C(=O)NC1C3CC(O)C(O)C1O)OCCO2 (racemic) ): 102

----------
// values below are reported viability at 10 µM
test system: UACC-257; assay: Antiproliferative activity against human UACC257 cells assessed as cell viability at 10^-5 M incubated for 48 hrs by sulforhodamine B assay relative to control; assay type: functional; conditions: UACC-257, 48 h, read-out: Activity
Quick reminder: number only, in %, skip the unit.

* COc1c2c(cc3c1C(=O)NC1C3CC(O)C(O)C1O)OCCO2 (racemic) | 98.8
* CCOc1c(OC)cc2c(c1OCC)C(=O)NC1C2CC(O)C(O)C1O (racemic) | 103
* CCOc1cc2c(c(O)c1OCC)C(=O)NC1C2CC(O)C(O)C1O (racemic) | 99.8
* COc1cc2c(c(OC)c1OC)C(=O)NC1C2CC(O)C(O)C1O (racemic) | 100
* CCCOc1cc2c(cc1OCC)C1CC(O)C(O)C(O)C1NC2=O (racemic) | 104

Please examine the following record next.
Recorded viability at 10 µM (compound O=C1NC2C(CC(O)C(O)C2O)c2cc3c(c(O)c21)OCO3 (racemic) ): -21.8
